Quick list: pIC50 per entry.
Molecular target: PBP3 (CDR20291_1067; soluble construct) (Clostridioides difficile)
Construct: modified pETGST vector with TEV site, E. coli BL21(DE3) pLysS; tag removed with TEV
Sequence (A0A9R0CE13 entry or part of it): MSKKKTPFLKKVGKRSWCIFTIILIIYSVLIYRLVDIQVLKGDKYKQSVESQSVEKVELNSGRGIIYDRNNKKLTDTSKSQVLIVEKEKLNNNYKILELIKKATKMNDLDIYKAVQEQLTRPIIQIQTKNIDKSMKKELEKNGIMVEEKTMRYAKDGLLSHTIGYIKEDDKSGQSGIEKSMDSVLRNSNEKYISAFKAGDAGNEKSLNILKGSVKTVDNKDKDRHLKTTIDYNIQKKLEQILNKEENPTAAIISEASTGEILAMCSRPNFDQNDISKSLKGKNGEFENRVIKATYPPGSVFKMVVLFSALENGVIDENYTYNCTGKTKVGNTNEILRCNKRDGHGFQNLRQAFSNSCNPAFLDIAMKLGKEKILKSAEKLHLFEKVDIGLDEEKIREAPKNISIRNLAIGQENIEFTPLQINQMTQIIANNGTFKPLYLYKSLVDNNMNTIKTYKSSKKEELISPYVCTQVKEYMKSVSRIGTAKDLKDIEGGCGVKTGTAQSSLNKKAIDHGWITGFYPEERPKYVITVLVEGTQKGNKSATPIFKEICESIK
Assay: Bacillin (bocillin) inhibition assay, PBP3
Conditions: FIGS. 6A-6F; 1 μM protein, 15 min preincubation at 37° C., 20 μM bocillin
Keep it numeric: pIC50 is minus log10 of the concentration in mol/L.

Worked set:
O=C(Nc1ccccc1)[C@@H]1CC[C@@H]2CN1C(=O)N2OS(=O)(=O)O = 5.70
O=C(Nc1ccc(-n2cccn2)cc1)[C@@H]1CC[C@@H]2CN1C(=O)N2OS(=O)(=O)O = 6.16

For reference, reported pIC50 for O=C(Nc1ccccc1)[C@H](NC(=O)[C@@H]1CC[C@@H]2CN1C(=O)N2OS(=O)(=O)O)c1ccccc1 stands at 5.31

GET /value?item= O=C(Nc1cccc2ccccc12)[C@@H]1CC[C@@H]2CN1C(=O)N2OS(=O)(=O)O &field=pIC50 returns 5.65

For reference, reported pIC50 for NC(=O)[C@@H]1CC[C@@H]2CN1C(=O)N2OS(=O)(=O)O stands at 5.27

----------
Molecular target: SpoVD (CdSpoVD, CDR20291_2544; soluble construct SpovD 38-583) (Clostridioides difficile, UniProt A0A9R0BM53)
Construct: pETGSTSUMO vector (NheI/XhoI), E. coli BL21(DE3) pLysS; fusion tag removed with ULP1
Sequence (A0A9R0BM53 entry or part of it): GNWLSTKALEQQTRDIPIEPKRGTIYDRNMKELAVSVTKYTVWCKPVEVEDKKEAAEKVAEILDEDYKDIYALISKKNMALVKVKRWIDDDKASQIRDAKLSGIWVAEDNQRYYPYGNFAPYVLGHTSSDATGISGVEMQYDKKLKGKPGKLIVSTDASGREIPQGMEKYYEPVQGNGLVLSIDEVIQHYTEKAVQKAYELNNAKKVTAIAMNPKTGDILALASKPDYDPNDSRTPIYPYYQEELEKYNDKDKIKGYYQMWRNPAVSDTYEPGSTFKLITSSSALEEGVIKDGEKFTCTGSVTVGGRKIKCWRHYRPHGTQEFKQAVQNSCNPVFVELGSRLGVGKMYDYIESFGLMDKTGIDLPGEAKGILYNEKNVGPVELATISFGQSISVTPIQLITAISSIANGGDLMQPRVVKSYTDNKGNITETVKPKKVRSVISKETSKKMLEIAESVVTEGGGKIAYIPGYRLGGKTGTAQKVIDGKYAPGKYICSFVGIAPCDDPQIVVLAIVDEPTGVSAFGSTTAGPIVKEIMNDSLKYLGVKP
Experiment: Bacillin (bocillin) inhibition assay, SpoVD
Format: biochemical
outcome measure: IC50 (nM)
Write the value in nM as a bare number.

IC50 measured on CC(C)(O/N=C(\C(=O)N[C@@H]1C(=O)N2C(C(=O)[O-])=C(C[n+]3ccccc3)CS[C@H]12)c1csc(N)n1)C(=O)O [Ceftazidime] = 2470

IC50 reading for C[C@H]1[C@H](NC(=O)/C(=N\OC(C)(C)C(=O)O)c2csc(N)n2)C(=O)N1S(=O)(=O)O [Aztreonam] : 1360

So, CC(=O)OCC1=C(C(=O)O)N2C(=O)[C@@H](NC(=O)Cc3cccs3)[C@H]2SC1 [Cefalothin] ? Its IC50 was 270

The molecule listed as CC1(C)S[C@@H]2[C@H](NC(=O)[C@H](N)c3ccccc3)C(=O)N2[C@H]1C(=O)O [Ampicillin] has a reported IC50 of 2540

----------
Listing of entries alongside the reported pIC50.
Molecular target: SpoVD (CdSpoVD, CDR20291_2544; soluble construct SpovD 38-583) (Clostridioides difficile)
Construct: pETGSTSUMO vector (NheI/XhoI), E. coli BL21(DE3) pLysS; fusion tag removed with ULP1
Experiment: Bacillin (bocillin) inhibition assay, SpoVD
Format: biochemical
Settings: FIGS. 4A-4F; 1 μM protein, 15 min preincubation at 37° C., 20 μM bocillin; read-out: SpoVD IC50
Give only the number. pIC50 is defined as minus log10 of concentration in molar units.

O=C(Nc1ccccc1)[C@H](NC(=O)[C@@H]1CC[C@@H]2CN1C(=O)N2OS(=O)(=O)O)c1ccccc1 = 4.88

Now for a further compound.
compound O=C(Nc1ccccc1)[C@@H](Cc1ccccc1)NC(=O)[C@@H]1CC[C@@H]2CN1C(=O)N2OS(=O)(=O)O , pIC50 observed: 5.41

Entry source: patent US12098153B2
